- experimental.target: recombinant human MIF (Homo sapiens)
- Construct: purchased ATGen Co. Ltd., Seoul, Republic of Korea
- Sequence (P14174 2-115 limits assumed): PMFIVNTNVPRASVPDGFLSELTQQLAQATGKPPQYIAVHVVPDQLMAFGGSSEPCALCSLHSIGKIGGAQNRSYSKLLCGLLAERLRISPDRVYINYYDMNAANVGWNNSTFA
- procedure.summary: Tautomerase assay: keto-enol tautomeric conversion of phenylpyruvate (enolase activity)
- Type: biochemical
- test.settings: keto-enol conversion of phenylpyruvate; read-out: Inhibition of enolase (IC50)
Consider the following molecules; for each one, report its pIC50.
The quantity pIC50 is defined as the negative base-10 logarithm of the molar concentration.

Ask: So what's the measured pIC50 for this one? `O=C1/C(=C/c2ccc(Br)cc2)CCc2ccccc21`
Reply: 3.63

Ask: Then this molecule: `Cc1ccc(/C=C2\CCc3ccccc3C2=O)cc1`
Reply: 2.64

Ask: Then this molecule: `O=C1/C(=C/c2ccncc2)CCc2ccccc21`
Reply: 3.68

Ask: Then this molecule: O=C1/C(=C/c2ccccc2)C[S+]([O-])c2ccccc21 (racemic)
Reply: 3.71

Ask: Then this molecule: `Cn1cccc1C=C1CCc2ccccc2C1=O`
Reply: 4.56

Ask: Then this molecule: `O=C1/C(=C/c2ccccc2)CCc2ccccc21`
Reply: 3.95

Ask: Then this molecule: `Cc1cccc(/C=C2\COc3ccccc3C2=O)c1`
Reply: 3.35

Ask: Then this molecule: `O=C1/C(=C/c2ccc(Cl)cc2Cl)CCc2ccccc21`
Reply: 3.52

Ask: Then this molecule: `O=C1/C(=C/c2ccc[nH]2)CCc2ccccc21`
Reply: 3.90

Ask: Then this molecule: `COc1ccc(/C=C2\CCc3ccccc3C2=O)cc1OC`
Reply: 3.52

Ask: Then this molecule: `COc1ccccc1/C=C1\COc2ccccc2C1=O`
Reply: 2.90

* * *

- experimental.target: recombinant human MIF (Homo sapiens)
- Construct: purchased ATGen Co. Ltd., Seoul, Republic of Korea
- procedure.summary: Tautomerase assay: enol-keto tautomeric conversion of phenylpyruvate (ketonase reaction)
- Type: biochemical
- test.settings: enol-keto conversion of phenylpyruvate, 100 µM substrate, pH 6.5; read-out: Inhibition of ketonase (IC50)
Consider the following compounds; for each one, report its pIC50.
The quantity pIC50 is defined as the negative base-10 logarithm of the molar concentration.

Ask: Recorded pIC50 for Cc1ccc(/C=C2\COc3ccccc3C2=O)cc1 [Compound 28] with recombinant human MIF (Homo sapiens), please?
Reply: 3.99

Ask: Then this compound: O=C1/C(=C/c2cccs2)CCc2ccccc21 [Compound 20]
Reply: 4.27

Ask: Then this compound: O=C1/C(=C/c2ccccc2)COc2ccccc21 [Compound 27]
Reply: 3.57

Ask: Then this compound: O=C1/C(=C/c2c[nH]c3ccccc23)CCc2ccccc21 [Compound 23]
Reply: 4.23

Ask: Then this compound: Cn1cccc1C=C1CCc2ccccc2C1=O [Compound 22]
Reply: 4.62

Ask: Then this compound: O=C1/C(=C/c2ccccc2)CS(=O)(=O)c2ccccc21 [Compound 38]
Reply: 3.80

Ask: Then this compound: N#Cc1ccc(/C=C2\CCc3ccccc3C2=O)cc1 [Compound 16]
Reply: 3.84

Ask: Then this compound: O=C1/C(=C/c2ccc(F)cc2)CCc2ccccc21 [Compound 10]
Reply: 4.14

Ask: Then this compound: O=C1/C(=C/c2ccncc2)CCc2ccccc21 [Compound 26]
Reply: 4.68

Ask: Then this compound: O=C1/C(=C/c2ccc(Br)cc2)CCc2ccccc21 [Compound 8]
Reply: 4.28

Ask: Then this compound: O=C1/C(=C/c2ccc(Br)cc2)COc2ccccc21 [Compound 33]
Reply: 3.51

Ask: Then this compound: COc1cccc(/C=C2\COc3ccccc3C2=O)c1 [Compound 31]
Reply: 4.01

Ask: Then this compound: O=C1/C(=C/c2ccc3c(c2)OCO3)CCc2ccccc21 [Compound 18]
Reply: 4.29

Ask: Then this compound: O=C1/C(=C/c2ccccc2Br)COc2ccccc21 [Compound 34]
Reply: 4.01

Ask: Then this compound: O=C1/C(=C/c2ccccc2Cl)CCc2ccccc21 [Compound 7]
Reply: 2.58

Ask: Then this compound: CN(C)c1ccc(/C=C2\CCc3ccccc3C2=O)cc1 [Compound 15]
Reply: 4.04

Ask: Then this compound: O=C1/C(=C/c2ccccc2)C(c2ccccc2)Oc2ccccc21 (stereo not drawn) [Compound 35]
Reply: 3.38

Ask: Then this compound: COc1ccc(/C=C2\CCc3ccccc3C2=O)cc1OC [Compound 17]
Reply: 3.23

Ask: Then this compound: O=C1/C(=C/c2ccccc2)C[S+]([O-])c2ccccc21 (racemic) [Compound 37]
Reply: 4.02

Ask: Then this compound: O=C1/C(=C/c2ccccc2)Cc2ccccc21 [Compound 1, E-2-phenylmethylene-1-indanone]
Reply: 4.08

Ask: Then this compound: O=C1/C(=C/c2ccc(Cl)cc2Cl)CCc2ccccc21 [Compound 13]
Reply: 4.77

Ask: Then this compound: O=C1/C(=C/c2ccccc2)CCc2ccccc21 [Compound 2]
Reply: 3.90

Ask: Then this compound: COc1ccc(/C=C2\CCc3ccccc3C2=O)cc1 [Compound 5]
Reply: 4.24

Ask: Then this compound: O=C1/C(=C/c2ccco2)CCc2ccccc21 [Compound 19]
Reply: 4.24

Ask: Then this compound: O=C1/C(=C/c2ccc(Cl)c(Cl)c2)CCc2ccccc21 [Compound 12]
Reply: 2.58

Ask: Then this compound: Cc1ccc(/C=C2\CCc3ccccc3C2=O)cc1 [Compound 4]
Reply: 4.78

Ask: Then this compound: Cc1cccc(/C=C2\COc3ccccc3C2=O)c1 [Compound 29]
Reply: 4.25

Ask: Then this compound: O=C1/C(=C/c2ccccc2)CCCc2ccccc21 [Compound 3, E-2-phenylmethylene-1-benzosuberone]
Reply: 4.08

Ask: Then this compound: COc1ccccc1/C=C1\COc2ccccc2C1=O [Compound 32]
Reply: 5.37

Ask: Then this compound: COc1ccc(/C=C2\COc3ccccc3C2=O)cc1 [Compound 30]
Reply: 4.02

Every entry's value here was drawn from paper PMC8266241.
